I'd be grateful if you could share measured Decomposition efficiency of glycitin family in defatted soybean for these entries.
System: Crude diglycosidase
Assay: Examination of pH in the conversion into isoflavone aglycons by diglycosidase using soybean materials
Format: biochemical, Penicillium multicolor IAM7153
Conditions: pH6.6; heat treatment of enzyme: no; reaction time 6 h
Answers are plain numbers, in %.

// query Give me measured Decomposition efficiency of glycitin family in defatted soybean, please, for this compound: "COc1cc2c(=O)c(-c3ccc(O)cc3)coc2cc1O"
// result 41.9

--- query ---
// query # return recorded Decomposition efficiency of glycitin family in defatted soybean for input "COc1cc2c(=O)c(-c3ccc(O)cc3)coc2cc1O[C@@H]1O[C@H](COC(=O)CC(=O)O)[C@@H](O)[C@H](O)[C@H]1O"
// result 58.1
